The measurements presented in this section are drawn from patent US20260092061A1.

Let's look at some molecules and their measured Dmax.
- TARGET_DESC: BRD9 (Homo sapiens)
- ASSAY_REMARKS: Degradation of BRD9 (IF), immunofluorescence in MV4-11 cells, 24 hours (Assay Protocol 2)
- Assay type: cell-based
- Design: A suspension of MV4-11 cells (ATCC CRL-9591) was prepared; host or cells: MV4-11
- PARTICULARS: MV4-11, Assay protocol 2; BRD9 degradation; read-out: Dmax

>  <MOLECULE>
CCCC(c1ccc(C(=O)N(C)CCC(=O)N2CCN(Cc3c(OC)cc(-c4cn(C)c(=O)c(C)c4C)cc3OC)CC2)cc1)N(C)C(=O)/C(C#N)=C/c1nccs1 (centres unmarked)

>  <Dmax>
40 to 70%

$$$$
>  <MOLECULE>
COc1cc(-c2cn(C)c(=O)c(C)c2C)cc(OC)c1CN1CC2CCC(C1)N2Cc1cccc2c1CCN(C(=O)/C(C#N)=C/C(C)(C)C)C2C (mixture of isomers)

>  <Dmax>
> 75%

$$$$
>  <MOLECULE>
COc1cc(-c2cn(C)c(=O)c(C)c2C)cc(OC)c1CN1C2CC1CN(C(=O)/C(C#N)=C/C1(F)CC1)C2 (mixture of isomers)

>  <Dmax>
> 75%

$$$$
>  <MOLECULE>
COc1cc(-c2cn(C)c(=O)c3[nH]ncc23)cc(OC)c1CN1CCN(Cc2cccc3c2CCN(C(=O)/C(C#N)=C/c2cccc(Br)n2)C3C)CC1 (mixture of isomers)

>  <Dmax>
40 to 70%

$$$$

Here is the next item to consider.
Task: Give the measured Dmax of COc1cc(-c2cn(C)c(=O)c(C)c2C)cc(OC)c1CN1CCN(Cc2cccc3c2CCN(C(=O)/C(C#N)=C/C(C)(C)C)[C@@H]3C(C)C)C2(CC2)C1 (single isomer, unassigned) .
Result: 40 to 70%

* * *

- TARGET_DESC: BRD9 (Homo sapiens)
- ASSAY_REMARKS: Degradation of BRD9 (IF), immunofluorescence in MV4-11 cells, 24 hours (Assay Protocol 2)
- Format: cell-based
- Set-up: A suspension of MV4-11 cells (ATCC CRL-9591) was prepared; host or cells: MV4-11
- PARTICULARS: Table 2; BRD9 degradation (IF), Assay Protocol 2, MV4-11 cells; read-out: Assay 2 DC50
READOUT_TYPE: DC50

// worked examples, DC50 included
>  <MOLECULE>
COc1cc(-c2cn(C)c(=O)c3cnccc23)cc(OC)c1CN1CCCN(Cc2cccc3c2CCN(C(=O)/C(C#N)=C/C(C)(C)C)C3C)CC1 (mixture of isomers) [Compound A31]

>  <TARGET_DESC>
BRD9 (Homo sapiens)

>  <DC50>
1.25 to 10 nM

$$$$
>  <MOLECULE>
COc1cc(-c2cn(C)c(=O)c(C)c2C)cc(OC)c1CN1CCN(Cc2cccc3c2CCN(C(=O)/C(C#N)=C/C(C)C)C3C)CC1 (mixture of isomers) [Compound A43]

>  <TARGET_DESC>
BRD9 (Homo sapiens)

>  <DC50>
< 1.25 nM

$$$$
>  <MOLECULE>
COc1cc(-c2cn(C)c(=O)c(C)c2C)cc(OC)c1CN1CC2CC(C1)N2Cc1cccc2c1CCN(C(=O)/C(C#N)=C/C(C)(C)C)C2C (mixture of isomers) [Compound A71]

>  <TARGET_DESC>
BRD9 (Homo sapiens)

>  <DC50>
< 1.25 nM

$$$$
>  <MOLECULE>
COc1cc(-c2cn(C)c(=O)c3cnccc23)cc(OC)c1CN1CCN(Cc2cccc3c2CCN(C(=O)/C(C#N)=C/C(C)(C)C)C3C)CC1 (mixture of isomers) [Compound A3]

>  <TARGET_DESC>
BRD9 (Homo sapiens)

>  <DC50>
1.25 to 10 nM

$$$$
>  <MOLECULE>
COc1cc(-c2cn(C)c(=O)c3cnccc23)cc(OC)c1CN1C2CCC1CN(Cc1cccc3c1CCN(C(=O)/C(C#N)=C/C(C)(C)C)C3C)C2 (stereo not shown) [Compound A49]

>  <TARGET_DESC>
BRD9 (Homo sapiens)

>  <DC50>
< 1.25 nM

$$$$

Task: Dear colleague, I am looking for the recorded DC50 of the following molecule: COc1cc(-c2cn(C)c(=O)c3cc(C(=O)NCCCCCOc4cccc(C5CCCN5C(=O)/C(C#N)=C/c5nccs5)c4)sc23)cc(OC)c1CN(C)C (mixture of isomers) [Compound A76]
Result: < 1.25 nM

Task: // returns reported DC50 for input COc1cc(-c2cn(C)c(=O)c(C)c2C)cc(OC)c1CN1CCCN(Cc2cccc3c2CCN(C(=O)/C(C#N)=C/C2(F)CC2)C3C)CC1 (single isomer, unassigned) [Compound A69]
Result: 25 to 300 nM

Task: Need DC50, item COc1cc(-c2cn(C)c(=O)c3cnccc23)cc(OC)c1CN1CCN(Cc2cccc3c2CCN(C(=O)/C(C#N)=C/C2(C)COC2)C3C)CC1 (mixture of isomers) [Compound A27]
Result: 1.25 to 10 nM

Task: // returns reported DC50 for input COc1cc(-c2cn(C)c(=O)c3cnccc23)cc(OC)c1CN1CCN(Cc2cccc3c2CCN(C(=O)/C(C#N)=C/c2ncccc2F)C3C)CC1 (mixture of isomers) [Compound A42]
Result: < 1.25 nM

Task: May I ask what DC50 has been recorded for COc1cc(-c2cn(C)c(=O)c(C)c2C)cc(OC)c1CN1CCN(Cc2cccc3c2CCN(C(=O)/C(C#N)=C/c2nccs2)C3C)CC1 (mixture of isomers) [Compound A4] ?
Result: < 1.25 nM

Task: I am curious: what DC50 value has been reported for COc1cc(-c2cn(C)c(=O)c3cnccc23)cc(OC)c1CN(C)CCN(C)Cc1cccc2c1CCN(C(=O)/C(C#N)=C/C(C)(C)C)C2C (mixture of isomers) [Compound A32] ?
Result: < 1.25 nM

Task: What does the record list as DC50 for COc1cc(-c2cn(C)c(=O)c3cnccc23)cc(OC)c1CN1CCN(Cc2cccc3c2CCN(C(=O)/C(C#N)=C/C2(C)CC2)C3C)CC1 (mixture of isomers) [Compound A26] ?
Result: 25 to 300 nM

Task: Which value of DC50 has been reported for COc1cc(-c2cn(C)c(=O)c3cc(C(=O)NCCOc4ccc5c(c4)CCN(C(=O)/C(C#N)=C/c4nccs4)C5C)sc23)cc(OC)c1CN(C)C (mixture of isomers) [Compound A74] in the records?
Result: 1.25 to 10 nM

Task: Look up DC50: COc1cc(-c2cn(C)c(=O)c(C)c2C)cc(OC)c1CN1CCN(Cc2cccc3c2CCN(C(=O)/C(C#N)=C/C(C)(C)C)C3C)CC1 (mixture of isomers) [Compound A7]
Result: 10 to 25 nM

Task: Query: DC50; subject: COc1cc(-c2cn(C)c(=O)c3cnccc23)cc(OC)c1CN1CCN(Cc2cccc3c2CCN(C(=O)/C(C#N)=C/c2nccs2)[C@H]3C)CC1 (single isomer, unassigned) [Compound A15]
Result: < 1.25 nM

Task: Reported DC50 for COc1cc(-c2cn(C)c(=O)c3cnccc23)cc(OC)c1CN(C)Cc1cccc2c1CCN(C(=O)/C(C#N)=C/c1cccc(Br)n1)C2C (mixture of isomers) [Compound A50] : what is it?
Result: 1.25 to 10 nM

Task: Give its DC50 value. Item: COc1cc(-c2cn(C)c(=O)c(C)c2C)cc(OC)c1CN1CCC(Oc2cccc3c2CCN(C(=O)/C(C#N)=C/c2cccc(Br)n2)C3C)CC1 (mixture of isomers) [Compound A68]
Result: < 1.25 nM

Task: Recorded DC50 of COc1cc(-c2cn(C)c(=O)c3cc(C(=O)NCCCCCOc4ccc5c(c4)CCN(C(=O)/C(C#N)=C/c4nccs4)C5C)sc23)cc(OC)c1CN(C)C (mixture of isomers) [Compound A75] , please.
Result: 1.25 to 10 nM

Task: Can you share its DC50? I mean this molecule: COc1cc(-c2cn(C)c(=O)c3cnccc23)cc(OC)c1CN1CCN(Cc2cccc3c2CCN(C(=O)/C(C#N)=C/c2nccs2)[C@@H]3C)CC1 (single isomer, unassigned) [Compound A14]
Result: < 1.25 nM

* * *

- TARGET_DESC: BRD9 (Homo sapiens, UniProt Q9H8M2)
- Sequence (Q9H8M2 whole entry): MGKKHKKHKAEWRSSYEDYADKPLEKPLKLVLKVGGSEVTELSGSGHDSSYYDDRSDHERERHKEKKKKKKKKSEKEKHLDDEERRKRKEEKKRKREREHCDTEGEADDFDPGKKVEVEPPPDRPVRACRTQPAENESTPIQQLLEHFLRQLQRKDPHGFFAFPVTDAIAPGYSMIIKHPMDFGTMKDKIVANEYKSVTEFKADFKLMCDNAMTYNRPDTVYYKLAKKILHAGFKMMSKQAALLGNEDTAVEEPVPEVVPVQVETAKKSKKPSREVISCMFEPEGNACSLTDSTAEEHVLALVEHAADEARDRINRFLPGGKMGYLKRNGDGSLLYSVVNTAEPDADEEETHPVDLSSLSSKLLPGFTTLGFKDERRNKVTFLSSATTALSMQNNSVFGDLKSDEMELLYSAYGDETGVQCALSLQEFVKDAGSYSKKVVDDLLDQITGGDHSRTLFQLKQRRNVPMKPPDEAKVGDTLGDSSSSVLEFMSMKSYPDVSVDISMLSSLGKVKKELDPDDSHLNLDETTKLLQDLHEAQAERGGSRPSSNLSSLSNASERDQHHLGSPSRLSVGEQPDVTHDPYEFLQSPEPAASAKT
- ASSAY_REMARKS: Degradation of BRD9 (IF), immunofluorescence in MV4-11 cells, 24 hours (Assay Protocol 2)
- Assay type: cell-based
- Design: A suspension of MV4-11 cells (ATCC CRL-9591) was prepared; host or cells: MV4-11
- PARTICULARS: MV4-11, Assay protocol 2; BRD9 degradation; read-out: Dmax
READOUT_TYPE: Dmax

>  <COMPOUND>
COc1cc(-c2cn(C)c(=O)c(C)c2C)cc(OC)c1CN(C)Cc1ccc(C2CCCN2C(=O)/C(C#N)=C/C(C)(C)C)cc1 (mixture of isomers) [Compound B34]

>  <Dmax>
40 to 70%

$$$$
>  <COMPOUND>
CCCC(c1cccc(C(=O)N2CCN(Cc3c(OC)cc(-c4cn(C)c(=O)c(C)c4C)cc3OC)CC2)c1)N(C)C(=O)/C(C#N)=C/c1nccs1 (mixture of isomers) [Compound B184]

>  <Dmax>
40 to 70%

$$$$
>  <COMPOUND>
COc1cc(-c2cn(C)c(=O)c(C)c2C)cc(OC)c1CN1CCC(Cc2cccc3c2CCN(C(=O)/C(C#N)=C/C(C)(C)C)[C@H]3C)CC1 (single isomer, unassigned) [Compound C59]

>  <Dmax>
40 to 70%

$$$$

Task: Entry COc1cc(-c2cn(C)c(=O)c(C)c2C)cc(OC)c1CN1CCN(C(=O)c2cccc3c2CCN(C(=O)/C(C#N)=C/C(C)(C)C)C3C)C2(CC2)C1 (mixture of isomers) [Compound C43] has what Dmax?
Result: > 75%

Task: Look at this compound and give its reported Dmax. COc1cc(-c2cn(C)c(=O)c3ccsc23)cc(OC)c1CN1CCN(Cc2cccc3c2CCN(C(=O)/C(C#N)=C/C(C)(C)C)C3C)CC1 (mixture of isomers) [Compound B59]
Result: 40 to 70%

Task: Returns the measured Dmax for the input compound. Input: COc1cc(-c2cn(C)c(=O)c(C)c2C)cc(OC)c1CN1CCN(Cc2cccc3c2CCN(C(=O)/C(C#N)=C/C(C)(C)C(F)(F)F)C3C)C2(CC2)C1 (mixture of isomers) [Compound B152]
Result: > 75%

Task: Would you mind telling me what Dmax value was observed for COc1cc(-c2cn(C)c(=O)c(C)c2C)cc(OC)c1CN(C)C1CCN(C(=O)/C(C#N)=C/C23CC(C2)C3)CC1 (mixture of isomers) [Compound B187] ?
Result: > 75%

Task: Give its Dmax value. Item: COc1cc(-c2cn(C)c(=O)c(C)c2C)cc(OC)c1CN(C)C(=O)c1cccc2c1CCN(C(=O)/C(C#N)=C/c1cccc(Br)n1)C2C (mixture of isomers) [Compound B16]
Result: > 75%

Task: Could you tell me which Dmax is on file for COc1cc(-c2cn(C)c(=O)c(C)c2C)cc(OC)c1CN1C[C@H](C)N(Cc2cccc3c2CCN(C(=O)/C(C#N)=C/C(C)(C)C)C3C)C[C@H]1C (mixture of isomers) [Compound B122] ?
Result: > 75%

Task: Which Dmax is listed for COc1cc(-c2cn(C)c(=O)c(C)c2C)cc(OC)c1CN1CCN(Cc2cccc3c2CCN(C(=O)/C(C#N)=C/c2cccc(Br)n2)C3C)C2(CC2)C1 (mixture of isomers) [Compound C29] ?
Result: 70 to 75%
